- assay.target: α3β2T150C nAChR (Rattus norvegicus, UniProt P04757+P12390, T176C)
- Sequence (P04757 26-499): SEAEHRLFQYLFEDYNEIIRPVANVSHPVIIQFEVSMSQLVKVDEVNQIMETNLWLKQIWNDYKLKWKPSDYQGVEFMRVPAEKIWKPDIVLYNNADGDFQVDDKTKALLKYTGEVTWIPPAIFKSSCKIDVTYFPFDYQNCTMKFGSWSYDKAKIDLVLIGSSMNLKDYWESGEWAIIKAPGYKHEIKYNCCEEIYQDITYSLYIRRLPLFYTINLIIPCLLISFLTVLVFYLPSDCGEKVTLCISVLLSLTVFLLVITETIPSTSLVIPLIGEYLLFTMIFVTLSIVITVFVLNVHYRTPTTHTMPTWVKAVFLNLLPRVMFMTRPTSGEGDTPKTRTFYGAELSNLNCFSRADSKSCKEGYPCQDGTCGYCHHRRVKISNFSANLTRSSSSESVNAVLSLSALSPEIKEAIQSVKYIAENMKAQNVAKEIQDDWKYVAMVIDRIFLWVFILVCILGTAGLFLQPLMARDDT
- Sequence (P12390 25-500 T176C): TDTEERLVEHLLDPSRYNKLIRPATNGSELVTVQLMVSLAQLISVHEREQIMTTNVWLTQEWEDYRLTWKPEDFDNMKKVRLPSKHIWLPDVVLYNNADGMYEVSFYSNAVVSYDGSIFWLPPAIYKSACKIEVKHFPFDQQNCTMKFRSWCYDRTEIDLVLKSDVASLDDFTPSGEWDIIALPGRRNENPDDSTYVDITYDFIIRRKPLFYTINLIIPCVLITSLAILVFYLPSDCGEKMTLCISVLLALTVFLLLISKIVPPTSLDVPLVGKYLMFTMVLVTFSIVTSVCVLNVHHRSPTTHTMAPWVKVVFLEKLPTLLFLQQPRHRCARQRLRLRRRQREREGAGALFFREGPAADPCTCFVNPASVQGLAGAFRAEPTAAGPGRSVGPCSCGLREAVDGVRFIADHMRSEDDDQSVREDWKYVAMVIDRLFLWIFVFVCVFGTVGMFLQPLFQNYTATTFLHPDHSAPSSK
- Type: cell-based
- experimental.conditions: Mor EC50 after MTSEA, after 100 μM MTSEA, four 30-sec doses
measure.name: EC50

>>> print(df.to_string())
                                smiles_text  value_measured
0  Cc1ccsc1C=CC1=NCCCN1C.O=C(O)C(O)C(O)C(=O)O           30 µM

* * *

- assay.target: α3T115Cβ2 nAChR (Rattus norvegicus, UniProt P04757+P12390, T142C)
- Sequence (P04757 26-499 T142C): as the sequence (P04757 26-499) above, with T117C counted along it
- Sequence (P12390 25-500): as the sequence (P12390 25-500 T176C) above, with C152T counted along it
measure.name: EC50 (µM)

In [3]: df
Out[3]:
                                   compound                              assay_target  value_measured
0  Cc1ccsc1C=CC1=NCCCN1C.O=C(O)C(O)C(O)C(=O)O [Mor]  α3T115Cβ2 nAChR (Rattus norvegicus, UniProt P04757+P12390, T142C)              30
